test_target: AKR1C3 (Homo sapiens, UniProt P42330)
experiment_description: AKR1C3 enzyme inhibition assay (coumberone to coumberol fluorescence)
Format: biochemical
Parameters: GST (cleaved yes); made in house; host or cells: E. coli
condition_notes: mean values; 10 μM NADPH, 0.3 μM coumberone, 3 h at room temperature
experimental_endpoint: IC50 (nM)

[[record]]
compound = "C[C@]12CC[C@@H]3c4ccc(S(=O)(=O)CCCC(=O)O)cc4CC[C@H]3[C@@H]1CC=C2c1cncc(F)c1 [Example 10]"
test_target = "AKR1C3 (Homo sapiens, UniProt P42330)"
experimental_endpoint = "IC50"
output_unit = "nM"
assay_value = 2.9


A: C[C@]12CC[C@@H]3c4ccc(S(=O)(=O)CCCC(=O)O)cc4CC[C@H]3[C@@H]1CC=C2c1cncc(C(F)(F)F)c1 [Example 14]
B: CN(C(=O)CCc1nn[nH]n1)c1ccc2c(c1)CC[C@@H]1[C@@H]2CC[C@]2(C)C(c3cncc(F)c3)=CC[C@@H]12 [Example 33]
Exercise: So which one has the bigger IC50 here, A or B ? // caller expects the label of the chosen entry
Solution: A
(A: 14.3 nM, B: 2.5 nM)

###

test_target: AKR1C3 (Homo sapiens)
Sequence (P42330 1-323): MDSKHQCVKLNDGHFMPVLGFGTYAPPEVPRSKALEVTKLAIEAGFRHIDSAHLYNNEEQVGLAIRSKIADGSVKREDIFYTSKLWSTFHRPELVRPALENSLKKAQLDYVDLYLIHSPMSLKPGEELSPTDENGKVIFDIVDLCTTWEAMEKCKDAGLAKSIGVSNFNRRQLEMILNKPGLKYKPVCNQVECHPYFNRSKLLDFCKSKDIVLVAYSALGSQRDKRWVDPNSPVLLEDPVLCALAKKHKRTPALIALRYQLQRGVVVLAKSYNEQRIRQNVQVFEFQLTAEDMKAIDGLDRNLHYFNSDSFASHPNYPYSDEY
experiment_description: AKR1C3 enzyme inhibition assay (coumberone to coumberol fluorescence)
Format: biochemical
Parameters: GST (cleaved yes); made in house; host or cells: E. coli
condition_notes: mean values; 10 μM NADPH, 0.3 μM coumberone, 3 h at room temperature
pIC50: −log10 of the molar value.
experimental_endpoint: pIC50

[[record]]
compound = "Cc1cc(C2=CC[C@H]3[C@@H]4CCc5cc(NC(=O)CCC(=O)O)ccc5[C@H]4CC[C@]23C)cnn1 [Example 45]"
test_target = "AKR1C3 (Homo sapiens)"
experimental_endpoint = "pIC50"
assay_value = 8.74


A: COc1cncc(C2=CC[C@H]3[C@@H]4CCc5cc(S(=O)(=O)CCCC(=O)O)ccc5[C@H]4CC[C@]23C)c1 [Example 16]
B: CC(=O)NS(=O)(=O)CCC(=O)N(C)c1ccc2c(c1)CC[C@@H]1[C@@H]2CC[C@]2(C)C(c3cncc(F)c3)=CC[C@@H]12 [Example 31]
C: C[C@]12CC[C@@H]3c4ccc(S(=O)(=O)CCCC(=O)O)cc4CC[C@H]3[C@@H]1CC=C2c1cncc(Cl)c1 [Example 19]
D: Cc1cc(C2=CC[C@H]3[C@@H]4CCc5cc(S(=O)(=O)N(C)CCC(=O)O)ccc5[C@H]4CC[C@]23C)cnn1 [Example 07]
Exercise: Order field: pIC50 | Direction: descending (largest first) Your answer should be the labels, listed in the requested order.
Solution: D, C, B, A

1: CC(=O)Nc1ccc2c(c1)CC[C@@H]1[C@@H]2CC[C@]2(C)C(c3cncc(F)c3)=CC[C@@H]12 [Example 40]
2: Cc1cncc(C2=CC[C@H]3[C@@H]4CCc5cc(S(=O)(=O)CCCC(=O)O)ccc5[C@H]4CC[C@]23C)c1 [Example 17]
Exercise: Given the listed items, does 1 or 2 have the lesser reported pIC50? // caller expects the label of the chosen entry
Solution: 1
(1: 8.28, 2: 8.80)

1: C[C@]12CC[C@@H]3c4ccc(NC(=O)NCCC(=O)O)cc4CC[C@H]3[C@@H]1CC=C2c1cncc(F)c1 [Example 42]
2: CN(CCC(=O)O)S(=O)(=O)c1ccc2c(c1)CC[C@@H]1[C@@H]2CC[C@]2(C)C(c3cncc(F)c3)=CC[C@@H]12 [Example 02]
3: Cc1ccncc1C1=CC[C@H]2[C@@H]3CCc4cc(S(=O)(=O)CCCC(=O)O)ccc4[C@H]3CC[C@]12C [Example 18]
Exercise: Order field: pIC50 | Direction: descending (largest first) Your answer should be the labels, listed in the requested order.
Solution: 2, 1, 3

a: COC(=O)CCCS(=O)(=O)c1ccc2c(c1)CC[C@@H]1[C@@H]2CC[C@]2(C)C(c3cncc(F)c3)=CC[C@@H]12 [Example 09]
b: CC(=O)NS(=O)(=O)CCC(=O)Nc1ccc2c(c1)CC[C@@H]1[C@@H]2CC[C@]2(C)C(c3cncc(F)c3)=CC[C@@H]12 [Example 29]
Exercise: So which one has the bigger pIC50 here, a or b ? // caller expects the label of the chosen entry
Solution: b
(b: 8.49, a: 8.11)

###

test_target: AKR1C3 (Homo sapiens, UniProt P42330)
experiment_description: AKR1C3 enzyme inhibition assay (coumberone to coumberol fluorescence)
Format: biochemical
Parameters: GST (cleaved yes); made in house; host or cells: E. coli
condition_notes: mean values; 10 μM NADPH, 0.3 μM coumberone, 3 h at room temperature
pIC50: −log10 of the molar value.
experimental_endpoint: pIC50

Example entries and their recorded answers appear below.
[[record]]
compound = "C[C@]12CC[C@@H]3c4ccc(NC(=O)CCc5nn[nH]n5)cc4CC[C@H]3[C@@H]1CC=C2c1cncc(F)c1 [Example 32]"
test_target = "AKR1C3 (Homo sapiens, UniProt P42330)"
assay_value = 7.93

[[record]]
compound = "C[C@]12CC[C@@H]3c4ccc(S(=O)(=O)CCCC(N)=O)cc4CC[C@H]3[C@@H]1CC=C2c1cncc(F)c1 [Example 20]"
test_target = "AKR1C3 (Homo sapiens, UniProt P42330)"
assay_value = 8.49

[[record]]
compound = "CN(C(=O)CCC(=O)O)c1ccc2c(c1)CC[C@@H]1[C@@H]2CC[C@]2(C)C(c3cncc(F)c3)=CC[C@@H]12 [Example 35]"
test_target = "AKR1C3 (Homo sapiens, UniProt P42330)"
assay_value = 8.49

[[record]]
compound = "C[C@]12CC[C@@H]3c4ccc(NC(=O)CCC(N)=O)cc4CC[C@H]3[C@@H]1CC=C2c1cncc(F)c1 [Example 26]"
test_target = "AKR1C3 (Homo sapiens, UniProt P42330)"
assay_value = 8.07


a: Cc1ccc(C2=CC[C@H]3[C@@H]4CCc5cc(S(=O)(=O)CCCC(=O)O)ccc5[C@H]4CC[C@]23C)cn1 [Example 15]
b: C[C@]12CC[C@@H]3c4ccc(S(C)(=O)=O)cc4CC[C@H]3[C@@H]1CC=C2c1cncc(F)c1 [Example 08]
Exercise: So which one has the bigger pIC50 here, a or b ? // caller expects the label of the chosen entry
Solution: b

I: C[C@]12CC[C@@H]3c4ccc(NS(=O)(=O)CCC(=O)O)cc4CC[C@H]3[C@@H]1CC=C2c1cncc(F)c1 [Example 39]
II: C[C@]12CC[C@@H]3c4ccc(S(=O)(=O)CCCC(=O)O)cc4CC[C@H]3[C@@H]1CC=C2c1cccnc1 [Example 12]
Exercise: So which one has the bigger pIC50 here, I or II ? // caller expects the label of the chosen entry
Solution: I

###

test_target: AKR1C3 (Homo sapiens)
experiment_description: AKR1C3 inhibition in a cell-based system (HEK293 cells transfected with AKR1C3 expression plasmid, coumberon substrate)
Design: expressed in transfected cells; host or cells: HEK293 cells (ATCC)
condition_notes: mean values; HEK293 cells transfected with AKR1C3, coumberon 6×10^−6M, 3 h; read-out: Cellular AKR1C3 inhibition IC50
pIC50: −log10 of the molar value.
experimental_endpoint: pIC50

[[record]]
smiles_data = "Cc1ccc(C2=CC[C@H]3[C@@H]4CCc5cc(S(=O)(=O)CCCC(=O)O)ccc5[C@H]4CC[C@]23C)cn1"
assay_value = 5.50

[[record]]
smiles_data = "C[C@]12CC[C@@H]3c4ccc(NC(=O)CCc5nn[nH]n5)cc4CC[C@H]3[C@@H]1CC=C2c1cncc(F)c1"
assay_value = 5.66

[[record]]
smiles_data = "CN(C(=O)CCc1nn[nH]n1)c1ccc2c(c1)CC[C@@H]1[C@@H]2CC[C@]2(C)C(c3cncc(F)c3)=CC[C@@H]12"
assay_value = 6.59

[[record]]
smiles_data = "C[C@]12CC[C@@H]3c4ccc(NC(=O)CCC(=O)O)cc4CC[C@H]3[C@@H]1CC=C2c1cncnc1"
assay_value = 5.08


A: C[C@]12CC[C@@H]3c4ccc(S(C)(=O)=O)cc4CC[C@H]3[C@@H]1CC=C2c1cncc(F)c1
B: CN(CCCC(=O)O)c1ccc2c(c1)CC[C@@H]1[C@@H]2CC[C@]2(C)C(c3cncc(F)c3)=CC[C@@H]12
Exercise: So which one has the bigger pIC50 here, A or B ? // caller expects the label of the chosen entry
Solution: A
(A: 7.10, B: 5.95)

1: CN(C(=O)CCC(=O)O)c1ccc2c(c1)CC[C@@H]1[C@@H]2CC[C@]2(C)C(c3cncc(F)c3)=CC[C@@H]12
2: C[C@]12CC[C@@H]3c4ccc(S(=O)(=O)CCCC(N)=O)cc4CC[C@H]3[C@@H]1CC=C2c1cncc(F)c1
Exercise: So which one has the bigger pIC50 here, 1 or 2 ? // caller expects the label of the chosen entry
Solution: 2
